Data provenance: PubChem BioAssay (NCI)

Task for the reader: assign each of the following compounds its reported growth.
System: NCI/ADR-RES ovarian
Test: NCI-60 one-dose screen, 48 h (100 = growth as untreated, 0 = no growth, -100 = all killed)
Settings: 10 µM unless noted
This is part of a sample that, as a whole, favours compounds with a hit. Of some 83,000 tested, about 20% had one in any assay.
Give bare numbers, in %.

// worked examples, growth included
Compound: O=c1[nH]nc(-c2ccc(Cl)cc2)cc1Cc1cccc([N+](=O)[O-])c1
Unit Name: %
Measurement: 101
--
Compound: [2H]C1([2H])NC([2H])([2H])C([2H])([2H])N(c2ccc(Nc3ncc4cc(C(=O)N(C)C)n(C5CCCC5)c4n3)nc2)C1([2H])[2H]
Unit Name: %
Measurement: 104
--
Compound: Nc1nc(SN=Nc2ccc(S(N)(=O)=O)cc2)c2[nH]cnc2n1
Unit Name: %
Measurement: 17.6
--
Compound: COc1ccc(/C=C\c2nc3ccccc3s2)cc1OP(=O)(O)O
Unit Name: %
Measurement: 14.4
--
Compound: O=CNc1cc(Cl)cc(Cl)c1
Unit Name: %
Measurement: 108
--
Compound: O=C(N/N=C/c1ccc(F)cc1)c1ccccc1Nc1cccc(C(F)(F)F)c1
Unit Name: %
Measurement: 107
--
Compound: COc1ccc(-c2nc(SCCC(C)C)nc(N/N=C(/C)c3ccc(C)cc3)c2C#N)cc1
Unit Name: %
Measurement: 89.8
--
Compound: Clc1ccc(C2CC(c3cccc(Nc4ccncc4)c3)=NN2c2ccccc2)cc1 (configuration not stated)
Unit Name: %
Measurement: 78.8
--
Compound: CN1CCN(c2cnc(C(=O)Nc3cc(F)cc4cccnc34)cn2)CC1
Unit Name: %
Measurement: 56.5
--
Compound: CC(=O)c1c(C)[nH]c(-c2nc3ccc(N4CCN(C)CC4)cc3[nH]2)c1-c1ccccc1
Unit Name: %
Measurement: 36.3

Hey, can you go through the list below and give me growth for every item?
1. O=C1C(=O)c2c(nc3ncccn23)-c2ccccc21
2. CC(=O)c1cc2c(N)c(C(=O)Nc3cncc4ccccc34)sc2nc1C
3. O=S(=O)(NCCCNc1nccc(-c2c(-c3cccc(O)c3)nc3occn23)n1)c1ccc(F)cc1
4. COc1cc(-c2nc3occn3c2-c2ccnc(NCCNS(=O)(=O)c3ccc(Cl)cc3)n2)ccc1F

# output
-32.8
104
105
82.2

Hey, can you go through the list below and give me growth for every item?
1. CN(C)Cc1c(-c2ccccc2)[nH]c2ccccc12
2. O=C(OCc1nc2nc(Cl)nc(N3CCOCC3)c2[nH]1)n1ccnc1
3. COc1cccc(/C=C2\COc3ccc(-c4ccccc4)cc3C2=O)c1
4. BrC(Br)(Br)c1cnc2ccccc2n1

# output
[98.2, 6.27, 5.38, 44.3]

* * *

Task for the reader: assign each of the following compounds its reported growth.
Tested on: SK-OV-3 ovarian
Assay: NCI-60 one-dose screen, 48 h (100 = growth as untreated, 0 = no growth, -100 = all killed)
Settings: 10 µM unless noted
This is part of a sample that, as a whole, favours compounds with a hit. Of some 83,000 tested, about 20% had one in any assay.
Numbers only, in %.

// worked examples, growth included
Compound: COc1ccc(-c2nc(N/N=C/c3c[nH]c4ccccc34)nc(N3CCOCC3)c2C#N)cc1
growth / %: 115
//
Compound: COc1c(Cl)cc(Cl)c2ccc(C=C3C(=O)N(C)C(=O)N(C)C3=O)nc12
growth / %: 101
//
Compound: CCN(CC)CCCC(C)Nc1c2c(nc3ccc(OC)cc13)CCCC2 (stereo not given)
growth / %: 119
//
Compound: O=C1CCCCCCCCC(O)C(O)CCCC(c2cccs2)O1 (stereo not given)
growth / %: 82.1
//
Compound: C#CCn1cc(C=C2C(=O)NC(=S)NC2=O)c2cc(Cl)ccc21
growth / %: 81.7

Hey, can you go through the list below and give me growth for every item?
1. COc1ccc2c(c1)c(CC(=O)NCCOCCOCC(=O)Nc1ccc(OC)c(C(N)=O)c1O)c(C)n2C(=O)c1ccc(Cl)cc1
2. CCCCCCOc1ccc(C(=N)N(CCCC)CCCC)c2ccccc12
3. CC[N+](CC)(CCCC(C)[N+]1(Cc2ccccc2)C(C)=CC=C1C)Cc1ccccc1 (stereo not given)
4. CCN(CCNc1cc(OC)cc2cccnc12)CCc1ccccc1
5. CCNC(=O)c1[nH]cc(-c2ccc(OC)cc2)c1-c1cc(OC)c(OC)c(OC)c1

# output
1. 109
2. -96.4
3. 101
4. 74.6
5. 57.7

* * *

System: SN12C renal
Test: NCI-60 one-dose screen, 48 h (100 = growth as untreated, 0 = no growth, -100 = all killed)
Settings: 10 µM unless noted
Description: Growth inhibition of the SN12C human tumor cell line is measured as a screen for anti-cancer activity. Cells are grown in 96 well plates and exposed to the test compound for 48 hours. Compounds are tested at a single concentration, which is 10^-5 M for most compounds. The reported endpoint is percent growth (GI% or GIPRCNT), where numbers from 0 - 100% represent growth inhibition, and numbers from -100% - 0 represent cell death. For example, a value of 40 represents 60% growth inhibition. […]
About 83,000 compounds went through this panel and 20% of them were active in at least one assay; those are over-represented in the sample as a whole.
Task for the reader: assign each of the following compounds its reported growth.
Give bare numbers, in %.

// worked examples, growth included
Compound: N#CC1=C(N)Oc2c(ccc3ccccc23)C1c1ccc([N+](=O)[O-])cc1 (centres undefined)
Study System: SN12C renal
growth / %: 90.4
--
Compound: COc1cccc2cc(-c3cc4ccccc4[nH]3)/c(=N/C(=S)Nc3ccc(C)cc3)oc12
Study System: SN12C renal
growth / %: 77.6
--
Compound: CN(C)Cc1c(-c2ccccc2)[nH]c2ccccc12
Study System: SN12C renal
growth / %: 99.4
--
Compound: C=C1C(=O)O[C@H]2[C@H]1CC/C(COC(=O)/C=C/c1c[nH]c3ccccc13)=C\CC[C@@]1(C)O[C@@H]21
Study System: SN12C renal
growth / %: -54
--
Compound: CCCc1cc2c(cc1Br)OCO2
Study System: SN12C renal
growth / %: 97.3
--
Compound: Nc1cc(N)c2cccnc2c1O
Study System: SN12C renal
growth / %: 55.5

Hey, can you go through the list below and give me growth for every item?
1. COc1cc(C2CC(c3cccc(Nc4ccncc4)c3)=NN2c2ccc(Cl)cc2)cc(OC)c1OC (centres undefined)
2. CC1=CC[C@@H]2CC[C@]3(C)[C@H](CC[C@@H]4[C@@]5(C)CCCNC(C)(C)[C@@H]5CC[C@]43C)[C@H]2[C@@H]1C
3. CC1(C)[C@H](O)CC[C@]2(C)[C@@H]1CC[C@@]13C[C@@H](CC[C@H]12)[C@@](O)(CO)C3
4. CC(C)(C)CC(C)(C)Nc1c(-c2ccc3c(c2)OCO3)nc2cnccn12

# output
1: 54.7; 2: 48.3; 3: 103; 4: 92.8

Hey, can you go through the list below and give me growth for every item?
1. COc1ccc(CC(C)=C(c2ccc(OCCN(C)C)cc2)c2ccc(OCCN(C)C)cc2)cc1
2. CN(C)C(=O)c1cc2cnc(Nc3ccc(-c4csc5c(=O)cc(N6CCOCC6)oc45)cc3)nc2n1C1CCCC1
3. Clc1ccc(N2N=C(c3cccc(Nc4ccncc4)c3)CC2c2ccccc2)cc1 (centres undefined)
4. Clc1nc(Cl)c2ncn(CC3(Cn4cnc5c(Cl)nc(Cl)nc54)COC3)c2n1
5. Cn1c(=O)c2[nH]c(CCCc3nc4c([nH]3)c(=O)n(C)c(=O)n4C)nc2n(C)c1=O
6. COc1ccc(-n2cc(-c3cc(OC)c(OC)c(OC)c3)n(C(C)=O)c2=O)cc1

# output
75.2
4.35
86.1
-86.6
103
93.4

Hey, can you go through the list below and give me growth for every item?
1. COc1cc(/C=N/NC(=O)c2ccccc2Nc2cccc(C(F)(F)F)c2)ccc1O
2. O=C(OC(OC(=O)c1cc(Cl)cc(Cl)c1)c1cccc2ccccc12)c1ccccc1 (centres undefined)
3. COc1ccc(C(=O)c2cc3c(N)c(C(=O)Nc4ccc(Cl)cc4)sc3nc2C)cc1

# output
1. 96.5
2. 97.5
3. 89.9

* * *

Task for the reader: assign each of the following compounds its reported growth.
Tested on: A549/ATCC NSCLC
Assay: NCI-60 one-dose screen, 48 h (100 = growth as untreated, 0 = no growth, -100 = all killed)
Conditions: 10 µM unless noted
The panel holds about 83,000 compounds, 20% with a hit somewhere; the sample as a whole holds those more often.
Give bare numbers, in %.

// worked examples, growth included
Compound: CCCCCN1C=C/C(=C\C(=O)N(C)c2cccc3ccccc23)c2ccccc21
Unit Name: %
growth: 102
--
Compound: CC1(C)CN(Cc2ccccc2)CCN1Cc1ccccc1
Unit Name: %
growth: 89.5
--
Compound: N/C(=N\N=C\c1cc2ccccc2[nH]1)N/N=C/c1cc2ccccc2[nH]1
Unit Name: %
growth: 101
--
Compound: Fc1ccc(C2CC(c3cccc(Nc4ccncc4)c3)=NN2c2ccccc2)cc1 (stereo not given)
Unit Name: %
growth: 43.1
--
Compound: CC(=O)OC1CCC2(C)C(CCC3C4CC=C(C(C)=O)C4(C)OC(=O)CC32)C1 (stereo not given)
Unit Name: %
growth: 59.1

Hey, can you go through the list below and give me growth for every item?
1. O=C1CCC(NC(=S)Nc2ccccc2)N1 (stereo not given)
2. C[C@H]1[C@H](C)CC[C@]2(CO)CC[C@]3(C)C(=CC[C@@H]4[C@@]5(C)Cc6c([nH]c7ccccc67)C(C)(C)[C@@H]5CC[C@]43C)[C@H]12
3. COc1ccc(-c2nc(SC(C)C)nc(NNC(N)=O)c2C#N)cc1
4. CS(=O)(=O)c1ccc(-c2cc3c(oc2=O)-c2ccccc2OC3O)cc1 (stereo not given)
5. CCCC/C(=N\N=C(N)N)c1ccc(F)cc1

# output
1. 101
2. 81
3. 88.6
4. 104
5. 31.8
